target: human cloned somatostatin receptor 4 (human) (UniProt P31391); experiment: 125I-Tyr11-SRIF-14 displacement
Sequence (P31391 whole entry): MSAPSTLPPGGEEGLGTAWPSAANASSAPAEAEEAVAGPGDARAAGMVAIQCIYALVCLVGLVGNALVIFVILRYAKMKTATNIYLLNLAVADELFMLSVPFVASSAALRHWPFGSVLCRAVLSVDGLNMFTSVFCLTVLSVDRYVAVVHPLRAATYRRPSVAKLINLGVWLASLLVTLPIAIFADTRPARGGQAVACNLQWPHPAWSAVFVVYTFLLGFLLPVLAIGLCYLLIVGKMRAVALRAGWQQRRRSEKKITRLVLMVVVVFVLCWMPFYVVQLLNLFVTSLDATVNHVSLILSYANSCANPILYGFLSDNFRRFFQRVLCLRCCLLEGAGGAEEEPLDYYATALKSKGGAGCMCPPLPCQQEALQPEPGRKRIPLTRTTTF
*1 amine or outer side, *2 acyl side, *3 side chain or, on linkers, in order; H or OH if unused. Bridges are numbered along the chain shown (N, C = ends). [ ]: non-standard residue; d: D form. The star is where a group is joined. DOTA = O=C(O)CN1CCN(CC(=O)O)CCN(CC(=O)*)CCN(CC(=O)O)CC1; N(2-mercaptoethyl)Gly = O=C(CN(CCS[*:3])[*:1])[*:2]; Orn = NCCC[C@H](N)C(=O)O

| Binder | % displacement at 1 nM |
| --- | --- |
| {DOTA}-[dF]E[Orn]CF[dW]KTF[N(2-mercaptoethyl)Gly]-NH2 (disulfide 4-10; SMILES C[C@@H](O)[C@@H]1NC(=O)[C@H](CCCCN)NC(=O)[C@@H](Cc2c[nH]c3ccccc23)NC(=O)[C@H](Cc2ccccc2)NC(=O)[C@@H](NC(=O)[C@H](CCCN)NC(=O)[C@H](CCC(=O)O)NC(=O)[C@@H](Cc2ccccc2)NC(=O)CN2CCN(CC(=O)O)CCN(CC(=O)O)CCN(CC(=O)O)CC2)CSSCCN(CC(N)=O)C(=O)[C@H](Cc2ccccc2)NC1=O) [SEQ ID NO: 23] | 0% |
| {DOTA}-A[dF]RCF[dW]KTF[N(2-mercaptoethyl)Gly]-NH2 (disulfide 4-10; SMILES C[C@H](NC(=O)CN1CCN(CC(=O)O)CCN(CC(=O)O)CCN(CC(=O)O)CC1)C(=O)N[C@H](Cc1ccccc1)C(=O)N[C@@H](CCCNC(=N)N)C(=O)N[C@H]1CSSCCN(CC(N)=O)C(=O)[C@H](Cc2ccccc2)NC(=O)[C@H]([C@@H](C)O)NC(=O)[C@H](CCCCN)NC(=O)[C@@H](Cc2c[nH]c3ccccc23)NC(=O)[C@H](Cc2ccccc2)NC1=O) [SEQ ID NO: 12] | 0% |

The measured values listed here are drawn from patent US20240165282A1.
